Target sequence: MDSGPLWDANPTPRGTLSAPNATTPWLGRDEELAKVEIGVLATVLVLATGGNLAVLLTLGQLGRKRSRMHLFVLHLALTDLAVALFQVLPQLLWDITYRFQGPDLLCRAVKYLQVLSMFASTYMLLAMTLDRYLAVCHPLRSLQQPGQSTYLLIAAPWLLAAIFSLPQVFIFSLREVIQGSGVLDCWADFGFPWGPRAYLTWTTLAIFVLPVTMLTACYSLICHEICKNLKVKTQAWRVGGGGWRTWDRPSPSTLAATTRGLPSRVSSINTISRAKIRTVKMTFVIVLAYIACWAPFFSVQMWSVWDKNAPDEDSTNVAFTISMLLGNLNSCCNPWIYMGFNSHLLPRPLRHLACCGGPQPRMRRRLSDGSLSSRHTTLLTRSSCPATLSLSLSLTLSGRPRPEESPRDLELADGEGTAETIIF
READOUT KIND: Ki

chemical_structure=CC(C)(C)NC(=O)Cn1c(-c2ccc(F)c(Cl)c2)cc2ccc(OCCCN3CCCC3)cc2c1=O readout_kind=Ki measured="100 to 1000 nM"
chemical_structure=CC(C)NC(=O)Cn1c(-c2cccc(F)c2)cc2ccc(OC[C@@H](C)CN(C)C)cc2c1=O readout_kind=Ki measured="10 to 100 nM"
